FYI, the data here is from paper PMC12075686.

measured target: T1, Transportin 3 (TNPO3), full-length wild type (human, UniProt Q9Y5L0 1-923)
T1 chain: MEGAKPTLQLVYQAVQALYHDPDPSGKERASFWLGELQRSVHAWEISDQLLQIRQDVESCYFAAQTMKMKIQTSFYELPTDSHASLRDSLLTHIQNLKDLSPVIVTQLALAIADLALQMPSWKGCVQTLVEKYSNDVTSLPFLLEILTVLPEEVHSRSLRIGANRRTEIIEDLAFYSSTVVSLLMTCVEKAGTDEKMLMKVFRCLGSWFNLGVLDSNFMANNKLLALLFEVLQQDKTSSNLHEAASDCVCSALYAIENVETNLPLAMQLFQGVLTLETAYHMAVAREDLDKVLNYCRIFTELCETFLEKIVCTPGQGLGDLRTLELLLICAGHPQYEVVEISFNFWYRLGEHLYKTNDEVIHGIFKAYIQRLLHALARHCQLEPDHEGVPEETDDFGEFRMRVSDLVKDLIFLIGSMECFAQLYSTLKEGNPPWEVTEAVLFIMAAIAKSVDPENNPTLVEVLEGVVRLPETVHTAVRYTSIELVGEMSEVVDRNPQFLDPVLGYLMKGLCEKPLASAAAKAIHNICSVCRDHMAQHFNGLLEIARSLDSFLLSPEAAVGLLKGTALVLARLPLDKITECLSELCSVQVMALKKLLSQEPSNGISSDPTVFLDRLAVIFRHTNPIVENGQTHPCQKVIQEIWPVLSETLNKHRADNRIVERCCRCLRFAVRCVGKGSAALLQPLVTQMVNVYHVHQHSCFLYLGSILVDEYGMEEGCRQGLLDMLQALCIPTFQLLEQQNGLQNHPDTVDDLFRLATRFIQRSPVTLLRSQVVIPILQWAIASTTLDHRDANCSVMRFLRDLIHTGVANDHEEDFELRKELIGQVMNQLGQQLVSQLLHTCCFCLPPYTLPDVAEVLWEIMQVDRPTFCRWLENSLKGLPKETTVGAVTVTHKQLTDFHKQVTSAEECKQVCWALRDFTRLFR
assay summary: ITC; phosphorylated, rep2
pKd: −log10 of the molar value. Non-standard residues stand in square brackets, D forms with d. No end group written: not given here. pS = N[C@@H](COP(=O)(O)O)C(=O)O

binder	pKd
SRDYYSSR[pS]Q[pS]GGY[pS]DRSSGGSYRDSYDSYATHNE (domain or fragment, human, UniProt Q14011 138-172, looked up, also called pCIRBP^RSY; phosphorylated CIRBP^RSY; source: E. coli BL21-(DE3) Star, purified; phosphorylated in vitro with recombinant SRPK1 and ATP overnight, isolated by SEC (Superdex 30 Increase); not shown: His6, N-terminal, cleaved; protein A, N-terminal, cleaved) [Phosphorylated RSY region of CIRBP (138-172), phosphorylated in vitro by SRPK1]	5.60
